Reference for the values: PubChem BioAssay AID1444

- target_desc: E3 ubiquitin-protein ligase Mdm2 (Homo sapiens)
- assay_notes: compounds raising luminescence in WT MDM2 cells – cell-based, wild-type MDM2, luciferase luminescence, dose response (AID 1444)
- details: MDM2 wild-type luciferase reporter cells, 2 h
assay_readout: EC50

-- ask Quick check: EC50 of "CC1=NN(c2cccc(C(=O)O)c2)C(=O)/C1=C\C=C/c1ccccc1" ?
-- reply 720 nM
